- System: CERCOSPORA ARACHIDICOLA (PEANUT)
- experiment.notes: foliar fungal disease control test (Table III)
- Type: in vivo
- condition.label: 100 ppm foliar spray plus root drench ca. 40 ppm a.i./dry soil; 1-2 days before inoculation
measurement.type: disease control grading, CERCOSPORA ARACHIDICOLA (PEANUT)
Please give only the number in your answer, with no unit.

Below are worked cases with known answers.
>  <structure.smiles.string>
CO/C=C(/C(=O)OC)c1ncccc1Oc1ccccc1

>  <measured.value>
4

$$$$
>  <structure.smiles.string>
CO/C=C(/C(=O)OC)c1cccnc1Oc1ccc(Br)cc1

>  <measured.value>
4

$$$$
>  <structure.smiles.string>
CO/C=C(/C(=O)OC)c1cccnc1Oc1cc(Cl)cc(Cl)c1

>  <measured.value>
4

$$$$
>  <structure.smiles.string>
CO/C=C(/C(=O)OC)c1cccnc1Oc1cccc(F)c1

>  <measured.value>
4

$$$$
>  <structure.smiles.string>
CO/C=C(/C(=O)OC)c1cccnc1Oc1ccc(Cl)cc1

>  <measured.value>
4

$$$$
>  <structure.smiles.string>
CO/C=C(/C(=O)OC)c1cccnc1Oc1ccc(OC)cc1

>  <measured.value>
4

$$$$

Continue with the next compound.
Name the reported disease control grading, CERCOSPORA ARACHIDICOLA (PEANUT) value associated with the compound CO/C=C(/C(=O)OC)c1cccnc1Oc1cccc(C)c1
4

Cited source for all entries: patent US4826531A
